- Experiment: Liver microsomal stability test, mouse
- Type: in vitro ADME
- Study conditions: mouse, liver microsomes, mouse liver microsomes, NADPH, 37° C.; read-out: T1/2 (min) Mouse
Field: log10 half-life at 1 µM. Provide a value for each of the compounds that follow.
Note the log scale: values are log10 of half-life at 1 µM expressed in min.

Which log10 half-life at 1 µM value is on record for CCn1nc(C(=O)NCc2ccc(-n3cnc4cc(C(=O)NC)ccc43)cc2)cc1Cc1ccccc1 [XHJ-4-36] ?
1.03

Quick one: Nc1ncnc2c1ncn2-c1ccc(CNC(=O)c2ccc(Cl)n2Cc2ccccc2)cc1 [ZSQ-21-18]
1.48

Also CN1CCN(CCNC(=O)c2ccc3c(c2)ncn3-c2ccc(CNC(=O)c3cnn(C)c3Cc3ccccc3)cc2)CC1 [QY-11-69B] , if possible.
1.66

Note, next up: CNC(=O)c1ccc2c(c1)ncn2-c1ccc(CNC(=O)c2nnn(Cc3ccccc3)n2)cc1 [ZSQ-13-36]
2.00

Moving on to the next compound: CNC(=O)c1ccc2c(c1)ncn2-c1ccc(CNC(=O)c2noc(Cc3ccccc3)n2)cc1 [QY-7-14]
1.89

Now consider Nc1ncnc2c1ncn2-c1ccc(CN2CCc3cn(Cc4ccccc4)nc3C2=O)cc1 [QY-9-50] .
2.06

Next record, please: Nc1ncnc2c1ccn2-c1ccc(CN2CCc3cn(Cc4ccccc4)nc3C2=O)cc1 [QY-9-41]
1.56

###

- Experiment: Liver microsomal stability test, human
- Assay type: in vitro ADME
- Study conditions: human, liver microsomes, human liver microsomes, NADPH, 37° C.; read-out: T1/2 (min) Human
Measured endpoint: half-life at 1 µM (min)
Dear colleague, please return just the value in min, with no unit written.

Could you share which half-life at 1 µM value was measured for CCn1nc(C(=O)NCc2ccc(-n3cnc4c(N)ncnc43)cc2)cc1Cc1ccccc1 ?
14.7

Next record, please: Nc1ncnc2c1ncn2-c1ccc(CNC(=O)c2ccc(Cl)n2Cc2ccccc2)cc1
8.6

Could you do the same for CN1CCN(CCNC(=O)c2ccc3c(c2)ncn3-c2ccc(CNC(=O)c3cnn(C)c3Cc3ccccc3)cc2)CC1 [QY-11-69B] , please?
43.3

Further, for CNC(=O)c1ccc2c(c1)ncn2-c1ccc(CNC(=O)c2nnn(Cc3ccccc3)n2)cc1 ?
99

Consider next the compound Nc1ncnc2c1ncn2-c1ccc(CNC(=O)c2cn(Cc3ccccc3)cn2)cc1 in the same way.
577

###

- Experiment: Liver microsomal stability test, human
- Format: in vitro ADME
- Study conditions: human, liver microsomes, human liver microsomes, NADPH, 37° C.; read-out: T1/2 (min) Human
Quick rule for you: half-life at 1 µM under 40 min gets 1, anything else gets -1.

Please indicate whether the reported half-life at 1 µM of CNC(=O)c1ccc2c(c1)ncn2-c1ccc(CNC(=O)c2cc(Cc3ccccc3)on2)cc1 is strictly below 40 min.
1

Then what about the compound CNC(=O)c1ccc2c(c1)ncn2-c1ccc(CN2CCc3cn(Cc4ccccc4)nc3C2=O)cc1 ?
-1

Item: Nc1ncnc2c1ccn2-c1ccc(CN2CCc3cn(Cc4ccccc4)nc3C2=O)cc1
1

Similarly, CCn1nc(C(=O)NCc2ccc(-n3ccc4c(N)ncnc43)cc2)cc1Cc1ccccc1 ?
1

Field entry: CNC(=O)c1ccc2c(c1)ncn2-c1ccc(CNC(=O)c2noc(Cc3ccccc3)n2)cc1
1

Also check Cn1nc(C(=O)NCc2ccc(-n3cnc4c(N)ncnc43)cc2)cc1Cc1ccccc1
1

Same question for Nc1ncnc2c1ncn2-c1ccc(CN2CCc3cn(Cc4ccccc4)nc3C2=O)cc1 please.
-1

Cool, now CCn1nc(C(=O)NCc2ccc(-n3cnc4cc(C(=O)NC)ccc43)cc2)cc1Cc1ccccc1
-1
